System: Culex pipiens pallens
protocol summary: Insecticidal activity against Culex pipiens pallens (mosquito) fourth-instar larvae assessed as insect mortality at 0.5 ug/mL measured 96 hr post compound exposure
Format: functional
Reported values of mortality at 0.5 µg/mL for individual entries
Note: unit % is implicit; provide only the numeric part.

Report mortality at 0.5 µg/mL for Cc1ccccc1C(=O)NN(C(=O)c1snnc1C)C(C)(C)C please.
30

Report mortality at 0.5 µg/mL for Cc1nnsc1C(=O)N(NC(=O)c1cccc(C(F)(F)F)c1)C(C)(C)C please.
0

Report mortality at 0.5 µg/mL for CCc1ccc(C(=O)NN(C(=O)c2cc(C)cc(C)c2)C(C)(C)C)cc1 [TEBUFENOZIDE] please.
60

Report mortality at 0.5 µg/mL for Cc1nnsc1C(=O)NN(C(=O)c1ccc(Cl)cc1)C(C)(C)C please.
10
